Collected pIC50 values appear next to each entry.
ASSAY_TARGET: HLA B*1503 (Homo sapiens, UniProt P01889, A329T/A93T/A95T/C349S/D201E/D98Y/E187L/E204Q/K202T/N87E/Q94N/R155S/R180L/S121R/S35A/V306I/V36M/Y140S/Y91S)
EXPERIMENT_SUMMARY: biochemical
Where a SMILES comes first, the peptide text is derived from it.
For clarity, pIC50 is expressed as the negative log10 of concentration in mol/L.

# count of solved cases: 2
CC[C@H](C)[C@H](NC(=O)[C@H](CC(C)C)NC(=O)[C@@H](N)CC(N)=O)C(=O)N[C@H](C(=O)N[C@@H](CC(C)C)C(=O)N[C@@H](C)C(=O)N[C@H](C(=O)N[C@@H](CO)C(=O)N[C@@H](Cc1ccccc1)C(=O)O)C(C)C)[C@@H](C)O [3102.0798] (H-NLITLAVSF-OH) | 7.82
CC[C@H](C)[C@H](NC(=O)[C@@H](NC(=O)[C@@H](NC(=O)[C@H](CCCNC(=N)N)NC(=O)[C@H](CC(N)=O)NC(=O)[C@H](Cc1ccccc1)NC(=O)[C@H](CO)NC(=O)[C@@H](N)C(C)C)C(C)C)C(C)C)C(=O)N[C@@H](Cc1ccccc1)C(=O)O [3102.1059] (H-VSFNRVVIF-OH) | 8.96

Could you now look at the following molecule, please?
Quick note, pIC50 for CC[C@H](C)[C@H](N)C(=O)N[C@@H](CCCCN)C(=O)N[C@H](C(=O)N[C@@H](CCSC)C(=O)N[C@@H](CCSC)C(=O)N[C@H](C(=O)N[C@@H](CC(N)=O)C(=O)N1CCC[C@H]1C(=O)N[C@@H](Cc1ccccc1)C(=O)O)[C@@H](C)CC)[C@@H](C)O [3102.1325] (H-IKTMMINPF-OH) landed at 9.72

====

ASSAY_TARGET: HLA B*3501 (Homo sapiens, UniProt P01889, A329T/A93T/A95T/C349S/D201E/D98Y/E176V/E187L/E204Q/E69T/I218V/K202T/L119I/Q94N/R155S/R180L/S121R/S35A/S48A/T118I/V127L/V306I/V36M/Y140S/Y91F)
Assay type: binding
ASSAY_METRIC: Normalized average relative binding affinity(ARB)
# print the numeric value only

# count of solved cases: 3
XXXXKXXXX [3064.0089] | 0.12
XXXXXXIXX [3064.0128] | 0.48
XXXXXPXXX [3064.0113] | 0.14

Could you now look at the following sequence, please?
Quick note, Normalized average relative binding affinity(ARB) for XXXXVXXXX [3064.0098] landed at 0.22

====

ASSAY_TARGET: HLA B*0702 (Homo sapiens)
Assay type: binding
EXPERIMENTAL_SETUP: positional scanning combinatorial 9-mer library; normalized to 1.0 for the best residue at each position
Collected Normalized average relative binding affinity (ARB), HLA B*0702 values appear next to each entry.
# print the numeric value only

# count of solved cases: 3
NXXXXXXXX [3064.0012] | 0.15
YXXXXXXXX [3064.0020] | 0.25
XIXXXXXXX [3064.0028] | 0.033

Quick note, Normalized average relative binding affinity (ARB), HLA B*0702 for XVXXXXXXX [3064.0038] landed at 0.086

Quick note, Normalized average relative binding affinity (ARB), HLA B*0702 for XCXXXXXXX [3064.0022] landed at 0.0028

Quick note, Normalized average relative binding affinity (ARB), HLA B*0702 for XHXXXXXXX [3064.0027] landed at 0.0028

Quick note, Normalized average relative binding affinity (ARB), HLA B*0702 for XXWXXXXXX [3064.0059] landed at 0.14

Quick note, Normalized average relative binding affinity (ARB), HLA B*0702 for XXDXXXXXX [3064.0043] landed at 0.031

Quick note, Normalized average relative binding affinity (ARB), HLA B*0702 for DXXXXXXXX [3064.0003] landed at 0.021

====

ASSAY_TARGET: HLA A*3201 (Homo sapiens, UniProt P04439, A270S/D101S/D185E/E176V/E277Q/F133L/G103R/G107R/G231S/H175R/I121M/I218V/I322F/K168Q/L105A/L300P/L318F/M331R/P208A/P217A/Q94H/R106L/R138Q/S129P/T104I/T323A/T345S/V100E/V321M/V358M)
EXPERIMENT_SUMMARY: biochemical
Assay type: binding
Recorded Normalized average relative binding affinity(ARB) determines the label; the label ranges are bottom range = under 0.4, center range = from 0.4 up to 0.7, top range = 0.7 and over

XXXXHXXXX [3064.0087] | bottom range
XXXXXXXFX [3064.0145] | bottom range
XXXXXXTXX [3064.0137] | bottom range
XXXXXXXHX [3064.0147] | center range
XXXEXXXXX [3064.0064] | bottom range

Band assignment needed for XXXXXGXXX [3064.0106] please.
bottom range

Band assignment needed for XXXXXXXAX [3064.0141] please.
top range

Band assignment needed for XXXXFXXXX [3064.0085] please.
top range

Band assignment needed for XXXFXXXXX [3064.0065] please.
top range

Band assignment needed for XXXXXXYXX [3064.0140] please.
center range

Band assignment needed for XXXXXXLXX [3064.0130] please.
top range

Band assignment needed for XXXXXYXXX [3064.0120] please.
bottom range

Band assignment needed for XXXXXNXXX [3064.0112] please.
top range

====

ASSAY_TARGET: HLA B*5802 (Homo sapiens, UniProt P01889, A329T/C349S/D201E/D98Y/E176V/E187L/E204Q/E69T/G107R/I218V/I90N/K202T/L105A/N104I/N87E/Q89R/Q94S/R106L/R155S/R180L/R86G/S101N/S121W/S35A/S48A/V127L/V306I/V36M/Y140S/Y91M)
Type: binding
Entry flag: 1.0 if Normalized average relative binding affinity (ARB), HLA B*5802 reaches 0.06; 0.0 if it does not.

Here are 5 sequences together with their reported answers.
SXXXXXXXX [3064.0016] | 1.0
XRXXXXXXX [3064.0035] | 0.0
XLXXXXXXX [3064.0030] | 1.0
NXXXXXXXX [3064.0012] | 1.0
XPXXXXXXX [3064.0033] | 0.0

// next entry
Say whether XXIXXXXXX [3064.0048] shows Normalized average relative binding affinity (ARB), HLA B*5802 of 0.06 or more.
1.0

====

ASSAY_TARGET: HLA B*1503 (Homo sapiens, UniProt P01889, A329T/A93T/A95T/C349S/D201E/D98Y/E187L/E204Q/K202T/N87E/Q94N/R155S/R180L/S121R/S35A/V306I/V36M/Y140S/Y91S)
EXPERIMENT_SUMMARY: biochemical
Type: binding
Recorded Normalized average relative binding affinity(ARB) determines the label; the label ranges are one: < 0.2; two: ≥ 0.2 and < 0.4; three: ≥ 0.4

Here are 2 sequences together with their reported answers.
XXXXXXXPX [3064.0153] | two
XXXLXXXXX [3064.0070] | three

Band assignment needed for XXXXWXXXX [3064.0099] please.
three

Band assignment needed for XXXXXXMXX [3064.0131] please.
one

====

ASSAY_TARGET: H-2 K^k (Mus musculus, UniProt P04223)
Sequence (P01887 21-119): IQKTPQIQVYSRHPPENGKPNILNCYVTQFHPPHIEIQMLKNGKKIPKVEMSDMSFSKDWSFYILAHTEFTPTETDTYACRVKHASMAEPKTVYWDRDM
Sequence (P04223 22-369): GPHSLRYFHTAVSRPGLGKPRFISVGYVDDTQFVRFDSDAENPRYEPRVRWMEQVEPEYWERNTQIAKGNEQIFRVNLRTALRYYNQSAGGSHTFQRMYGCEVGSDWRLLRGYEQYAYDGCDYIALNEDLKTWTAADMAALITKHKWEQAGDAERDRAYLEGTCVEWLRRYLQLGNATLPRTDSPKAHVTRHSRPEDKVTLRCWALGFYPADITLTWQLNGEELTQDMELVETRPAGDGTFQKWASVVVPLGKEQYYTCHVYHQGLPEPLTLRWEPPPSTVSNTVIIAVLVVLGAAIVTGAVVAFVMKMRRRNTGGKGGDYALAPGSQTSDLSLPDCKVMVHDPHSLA
Type: binding
ASSAY_METRIC: Normalized average relative binding affinity (ARB), H-2 Kk

XXSXXXXXX [3064.0056] | 0.43
XKXXXXXXX [3064.0029] | 0.0031
XLXXXXXXX [3064.0030] | 0.062

Could you now look at the following sequence, please?
Quick note, Normalized average relative binding affinity (ARB), H-2 Kk for XXCXXXXXX [3064.0042] landed at 0.15

====

ASSAY_TARGET: HLA B*5301 (Homo sapiens, UniProt P01889, A329T/A93T/A95T/C349S/D201E/D98Y/E176V/E187L/E204Q/E69T/G107R/I218V/K202T/L105A/L119I/N104I/Q94N/R106L/R155S/R180L/S101N/S121R/S35A/S48A/T118I/V127L/V306I/V36M/Y140S/Y91F)
Format: binding
ASSAY_METRIC: Normalized average relative binding affinity (ARB), HLA B*5301
# print the numeric value only

XXVXXXXXX [3064.0058] | 0.11
XXYXXXXXX [3064.0060] | 0.078
XXIXXXXXX [3064.0048] | 0.26

Could you now look at the following sequence, please?
Quick note, Normalized average relative binding affinity (ARB), HLA B*5301 for XWXXXXXXX [3064.0039] landed at 0.0054
